src = patent US20260241307A1

Quick reference for D90 among some compounds
experiment: Laser diffraction particle size analysis of recrystallized crystals; assay type: physicochemical; conditions: large scale batch, recrystallized from methanol, slow evaporation, isotherm 25° C.
Report only the number, with the unit µm understood.

See these solved cases before continuing.
CCC(=O)O[C@]1(C(=O)SCF)[C@H](C)C[C@H]2[C@@H]3C[C@H](F)C4=CC(=O)C=C[C@]4(C)[C@@]3(F)[C@@H](O)C[C@@]21C [Batch 3, fluticasone propionate] : 798
CCC(=O)O[C@]1(C(=O)SCF)[C@H](C)C[C@H]2[C@@H]3C[C@H](F)C4=CC(=O)C=C[C@]4(C)[C@@]3(F)[C@@H](O)C[C@@]21C [Batch 2, fluticasone propionate] : 838
CCC(=O)O[C@]1(C(=O)SCF)[C@H](C)C[C@H]2[C@@H]3C[C@H](F)C4=CC(=O)C=C[C@]4(C)[C@@]3(F)[C@@H](O)C[C@@]21C [Batch 1, fluticasone propionate] : 876

Prompt: # lookup: D90 of CCC(=O)O[C@]1(C(=O)SCF)[C@H](C)C[C@H]2[C@@H]3C[C@H](F)C4=CC(=O)C=C[C@]4(C)[C@@]3(F)[C@@H](O)C[C@@]21C [Batch 4, fluticasone propionate]
Response: 820

* * *

test: Laser diffraction particle size analysis of recrystallized crystals; format: physicochemical; details: large scale batch, recrystallized from methanol, slow evaporation, isotherm 25° C.
QUANTITY_NAME: D10 (µm)
Write it as a number; the unit µm goes unstated.

Consider the reported D10 for these compounds:
CCC(=O)O[C@]1(C(=O)SCF)[C@H](C)C[C@H]2[C@@H]3C[C@H](F)C4=CC(=O)C=C[C@]4(C)[C@@]3(F)[C@@H](O)C[C@@]21C [Batch 1, fluticasone propionate] : 119
CCC(=O)O[C@]1(C(=O)SCF)[C@H](C)C[C@H]2[C@@H]3C[C@H](F)C4=CC(=O)C=C[C@]4(C)[C@@]3(F)[C@@H](O)C[C@@]21C [Batch 3, fluticasone propionate] : 72
CCC(=O)O[C@]1(C(=O)SCF)[C@H](C)C[C@H]2[C@@H]3C[C@H](F)C4=CC(=O)C=C[C@]4(C)[C@@]3(F)[C@@H](O)C[C@@]21C [Batch 2, fluticasone propionate] : 97

Kindly review the next compound as well.
Prompt: What does the data say about its D10? Entry: CCC(=O)O[C@]1(C(=O)SCF)[C@H](C)C[C@H]2[C@@H]3C[C@H](F)C4=CC(=O)C=C[C@]4(C)[C@@]3(F)[C@@H](O)C[C@@]21C [Batch 4, fluticasone propionate]
Response: 82

* * *

test: Laser diffraction particle size analysis of recrystallized crystals; type: physicochemical; settings: large scale batch, recrystallized from methanol, slow evaporation, isotherm 25° C.
Measured D50, listed per entry.
Number in µm, nothing else.

Prompt: Param item = CCC(=O)O[C@]1(C(=O)SCF)[C@H](C)C[C@H]2[C@@H]3C[C@H](F)C4=CC(=O)C=C[C@]4(C)[C@@]3(F)[C@@H](O)C[C@@]21C [Batch 4, fluticasone propionate] ; retrieve measured D50.
Response: 288

* * *

Assay: Laser diffraction particle size analysis of recrystallized crystals
Assay type: physicochemical
Conditions: large scale batch, recrystallized from methanol, slow evaporation, isotherm 25° C.
From the text: As used herein, laser diffraction is the methodology used for measuring and analyzing particle size and size distribution of a sample or collection of particles (e.g., the recrystallized columnar crystals and the sized crystals). More specifically, a D10 value refers to the diameter at which 10% of the sample's mass is comprised of particles with a diameter less than this value. […]
QUANTITY_NAME: D50 (µm)
Quick note: give the figure in µm, leave out the unit.

Example entries and their recorded answers appear below.
CCC(=O)O[C@]1(C(=O)SCF)[C@H](C)C[C@H]2[C@@H]3C[C@H](F)C4=CC(=O)C=C[C@]4(C)[C@@]3(F)[C@@H](O)C[C@@]21C [Batch 1, fluticasone propionate] : 365
CCC(=O)O[C@]1(C(=O)SCF)[C@H](C)C[C@H]2[C@@H]3C[C@H](F)C4=CC(=O)C=C[C@]4(C)[C@@]3(F)[C@@H](O)C[C@@]21C [Batch 2, fluticasone propionate] : 323

Prompt: Would you kindly share the measured D50 for CCC(=O)O[C@]1(C(=O)SCF)[C@H](C)C[C@H]2[C@@H]3C[C@H](F)C4=CC(=O)C=C[C@]4(C)[C@@]3(F)[C@@H](O)C[C@@]21C [Batch 3, fluticasone propionate] ?
Response: 253
